Cited source: ChEMBL document CHEMBL1143088

assay: Drug level in Sprague-Dawley rat brain at steady state at […], iv after 18 hrs; assay type: ADME, organism-based; design: route intravenous; settings: read-out: Drug uptake
QUANTITY KIND: concentration at 18 h (nM)

> print(dat)
                            smiles.notation  units.symbol  meas.value
1  Cc1cc(NC(=O)OC(C)(C)C)nn1Cc1cc(Cl)ccc1OCc1ccccc1            nM        1400

----------
experiment: Ratio of drug level in brain to blood in FCA-induced hypersensitivity rat at 3 mg/kg, po administered with DMSO as vehicle; format: ADME, organism-based; design: dose 3 mg/kg, route oral
QUANTITY KIND: Kp

> print(dat)
                            smiles.notation  quantity.kind  meas.value
1  Cc1cc(NC(=O)OC(C)(C)C)nn1Cc1cc(Cl)ccc1OCc1ccccc1             Kp        2.66

----------
Biological target: Prostaglandin E2 receptor EP1 subtype (Homo sapiens)
Sequence (P34995 whole entry): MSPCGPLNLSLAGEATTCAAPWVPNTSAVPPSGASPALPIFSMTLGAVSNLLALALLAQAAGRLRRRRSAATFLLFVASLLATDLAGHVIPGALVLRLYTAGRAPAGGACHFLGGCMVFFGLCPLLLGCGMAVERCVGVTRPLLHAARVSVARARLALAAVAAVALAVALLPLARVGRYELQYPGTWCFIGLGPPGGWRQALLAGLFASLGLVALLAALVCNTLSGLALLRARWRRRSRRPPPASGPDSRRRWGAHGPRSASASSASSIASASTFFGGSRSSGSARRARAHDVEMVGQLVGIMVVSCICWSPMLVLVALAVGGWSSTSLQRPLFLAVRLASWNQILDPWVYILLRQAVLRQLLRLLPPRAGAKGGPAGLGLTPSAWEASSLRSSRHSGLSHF
Assay: Displacement of [3H]PGE2 from human PGE2-EP1 receptor expressed in CHO-K1 cells
QUANTITY KIND: IC50 (nM)

> print(dat)
                                    compound  meas.value
 1  Cc1cc(NC(=O)C2CCCO2)nn1Cc1cc(Cl)ccc1OCc1ccccc1 (stereo unspecified)        39.8
 2  O=C(Cc1ccccn1)Nc1ccn(Cc2cc(Cl)ccc2OCc2ccccc2)n1         398
 3  Cc1cc(NC(=O)OCc2ccccn2)nn1Cc1cc(Cl)ccc1OCc1ccccc1        79.4
 4  Cc1cc(NC(=O)OC2CCOCC2)nn1Cc1cc(Cl)ccc1OCC(C)C        63.1
 5  Cc1cc(C(=O)Nc2cccc(F)c2)nn1Cc1cc(Cl)ccc1OCc1ccccc1         200
 6  Cc1cc(C(=O)NCc2ccccc2)nn1Cc1cc(Cl)ccc1OCc1ccccc1        39.8
 7  Cc1cc(NC(=O)OC(C)(C)C(F)(F)F)nn1Cc1cc(Cl)ccc1OCC(C)C        50.1
 8  Cc1cc(C(=O)Nc2ccc(F)cc2)nn1Cc1cc(Cl)ccc1OCc1ccccc1        79.4
 9  Cc1cc(NC(=O)C2CCOCC2)nn1Cc1cc(Cl)ccc1OCc1ccccc1        63.1
10  Cc1cc(NC(=O)Cc2ccccc2)nn1Cc1cc(Cl)ccc1OCc1ccccc1        12.6
11  Cc1cc(NC(=O)CC2CCCCC2)nn1Cc1cc(Cl)ccc1OCc1ccccc1        6.31
12  Cc1cc(NC(=O)C(C)(C)c2ccccc2)nn1Cc1cc(Cl)ccc1OCc1ccccc1        63.1
13  Cc1cc(C(=O)NCc2cccnc2)nn1Cc1cc(Cl)ccc1OCc1ccccc1        50.1
14  Cc1cc(NC(=O)C2CCCCC2)nn1Cc1cc(Cl)ccc1OCC(C)C        31.6
15  Cc1cc(C(=O)NC(C)C)nn1Cc1cc(Cl)ccc1OCc1ccccc1         126
16  Cc1cc(NC(=O)Cc2cccnc2)nn1Cc1cc(Cl)ccc1OCc1ccccc1        39.8
17  Cc1cc(C(=O)Nc2ccccc2)nn1Cc1cc(Cl)ccc1OCc1ccccc1        39.8
18      Cc1cc(C(N)=O)nn1Cc1cc(Cl)ccc1OCC(C)C         126
19  Cc1cc(NC(=O)CC(C)(C)C)nn1Cc1cc(Cl)ccc1OCc1ccccc1          10
20  Cc1cc(NC(=O)c2c(F)cccc2F)nn1Cc1cc(Cl)ccc1OCc1ccccc1        12.6
21  Cc1cc(NC(=O)OC(C)C)nn1Cc1cc(Cl)ccc1OCc1ccccc1        31.6

----------
target: Cytochrome P450 3A4 (Homo sapiens)
Sequence (P08684 whole entry): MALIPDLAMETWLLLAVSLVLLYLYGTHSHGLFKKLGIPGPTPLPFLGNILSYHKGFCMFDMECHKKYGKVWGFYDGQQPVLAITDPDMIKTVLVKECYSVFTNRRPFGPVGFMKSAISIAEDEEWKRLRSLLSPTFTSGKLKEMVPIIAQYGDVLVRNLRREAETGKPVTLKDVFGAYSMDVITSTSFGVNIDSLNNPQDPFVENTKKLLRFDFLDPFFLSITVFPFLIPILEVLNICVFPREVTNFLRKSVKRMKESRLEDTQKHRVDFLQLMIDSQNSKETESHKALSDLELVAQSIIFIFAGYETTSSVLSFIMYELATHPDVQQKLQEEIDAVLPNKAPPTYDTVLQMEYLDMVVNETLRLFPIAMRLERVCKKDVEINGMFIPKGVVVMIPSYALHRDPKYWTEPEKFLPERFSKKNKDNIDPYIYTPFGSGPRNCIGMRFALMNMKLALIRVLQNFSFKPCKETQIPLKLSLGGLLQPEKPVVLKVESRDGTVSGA
Listed compounds paired with reported IC50
QUANTITY KIND: IC50

> print(dat)
                            smiles.notation  meas.value
1  Cc1cc(NC(=O)OC(C)C)nn1Cc1cc(Cl)ccc1OCc1ccccc1     > 81 µM
2  Cc1cc(NC(=O)OC(C)(C)C)nn1Cc1cc(Cl)ccc1OCc1ccccc1    > 100 µM

----------
Listed compounds paired with reported pKi
molecular target: Prostaglandin E2 receptor EP1 subtype (Homo sapiens, UniProt P34995); assay: Antagonist activity at PGE2-EP1 receptor assessed as PGE2-induced intracellular calcium mobilization
pKi: −log10 of the molar value.
QUANTITY KIND: pKi

> print(dat)
                            smiles.notation  meas.value
1  Cc1cc(NC(=O)OC(C)(C)C)nn1Cc1cc(Cl)ccc1OCc1ccccc1        7.80
2  Cc1cc(NC(=O)OC(C)C)nn1Cc1cc(Cl)ccc1OCc1ccccc1        7.30

----------
system: Blood; assay: Drug uptake in FCA-induced hypersensitivity rat blood at 3 mg/kg, po administered with NMP as vehicle; settings: in vivo
QUANTITY KIND: concentration (µM)

> print(dat)
                            smiles.notation  meas.value
1  Cc1cc(NC(=O)OC(C)C)nn1Cc1cc(Cl)ccc1OCc1ccccc1       0.749

----------
Target: UniProt P34995
Sequence (P34995 whole entry): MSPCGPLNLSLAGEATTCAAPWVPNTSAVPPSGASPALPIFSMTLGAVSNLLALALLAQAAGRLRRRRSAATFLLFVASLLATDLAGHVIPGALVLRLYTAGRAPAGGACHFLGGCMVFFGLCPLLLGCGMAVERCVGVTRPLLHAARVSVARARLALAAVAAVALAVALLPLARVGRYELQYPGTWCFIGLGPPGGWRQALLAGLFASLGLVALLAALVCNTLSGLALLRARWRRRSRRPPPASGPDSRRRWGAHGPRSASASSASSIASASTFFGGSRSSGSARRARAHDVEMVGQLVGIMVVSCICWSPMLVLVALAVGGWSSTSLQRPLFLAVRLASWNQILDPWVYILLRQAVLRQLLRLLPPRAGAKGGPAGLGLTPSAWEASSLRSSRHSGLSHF
Experiment: Displacement of [3H]PGE2 from human PGE2-EP1 receptor expressed in CHO-K1 cells
Assay type: cell-based
QUANTITY KIND: log10 IC50 (log10 of the value in nM)

> print(dat)
                             smiles.notation  quantity.kind  meas.value
 1  Cc1cc(NC(=O)OCC(C)C)nn1Cc1cc(Cl)ccc1OCc1ccccc1     log10 IC50        1.40
 2  Cc1cc(NC(=O)Cc2ccncc2)nn1Cc1cc(Cl)ccc1OCc1ccccc1     log10 IC50        1.70
 3  Cc1cc(NC(=O)C2CCCC2)nn1Cc1cc(Cl)ccc1OCc1ccccc1     log10 IC50        1.20
 4  Cc1cc(NC(=O)OCc2ccccc2)nn1Cc1cc(Cl)ccc1OCc1ccccc1     log10 IC50        1.90
 5  Cc1cc(C(=O)NCc2ccccn2)nn1Cc1cc(Cl)ccc1OCc1ccccc1     log10 IC50        1.40
 6  CCOC(=O)Nc1cc(C)n(Cc2cc(Cl)ccc2OCc2ccccc2)n1     log10 IC50        1.90
 7  Cc1cc(C(=O)Nc2c(F)cccc2F)nn1Cc1cc(Cl)ccc1OCc1ccccc1     log10 IC50        1.00
 8  Cc1cc(C(=O)NN2CCOCC2)nn1Cc1cc(Cl)ccc1OCC(C)C     log10 IC50        2.40
 9  Cc1cc(NC(=O)c2ccccc2)nn1Cc1cc(Cl)ccc1OCc1ccccc1     log10 IC50        1.20
10  Cc1cc(C(=O)Nc2ccccn2)nn1Cc1cc(Cl)ccc1OCc1ccccc1     log10 IC50        2.10

----------
test system: Blood; experiment: Drug uptake in FCA-induced hypersensitivity rat blood at 3 mg/kg, po administered with DMSO as vehicle; assay type: ADME, organism-based; design: dose 3 mg/kg, route oral; settings: in vivo, read-out: Drug uptake
QUANTITY KIND: concentration (nM)

> print(dat)
                            smiles.notation  quantity.kind  units.symbol  meas.value
1  Cc1cc(NC(=O)OC(C)(C)C)nn1Cc1cc(Cl)ccc1OCc1ccccc1  concentration            nM         210
